experiment: Human clinical bioavailability study, oral versus i.v. paclitaxel; type: in vivo; settings: both sexes, plasma, 75 mg/m2, oral 75 mg/m^2, without delivery system, read-out: mean AUC of orally administered paclitaxel
measurement name: AUC (µg·h/mL)
Give bare numbers, in µg·h/mL.

Q: Requested read-out: AUC. Entry: CC(=O)O[C@H]1C(=O)[C@@]2(C)[C@H]([C@H](OC(=O)c3ccccc3)[C@]3(O)C[C@H](OC(=O)[C@H](O)[C@@H](NC(=O)c4ccccc4)c4ccccc4)C(C)=C1C3(C)C)[C@]1(OC(C)=O)CO[C@@H]1C[C@@H]2O
Ans: 0.42
